# TESTED TARGET: GORASP2, Q9H8Y8
# ASSAY NOTES: holdup assay
# Set-up: key: below the threshold = too weak to quantify, mostly under pKd 3.1 to 4
# CONDITION LABEL: plain residues with an end cap or a label only (N-terminal biotin on a linker: ado-ado)
PARAMETER: pKd

Consider the worked cases shown below.
# BINDER, pKd
rows = [
    ("NNNVVKVDSV [MTNR1A, P48039]", "below the threshold"),
    ("NIAESLESLV [PTPRZ1, P23471]", "below the threshold"),
    ("DTKNYKQTSV [CRIPT, Q9P021]", "below the threshold"),
    ("PYPTADHMLA [JUP, P14923]", "below the threshold"),
    ("EKCGKEFSEF [PRKACA, P17612]", "below the threshold"),
    ("VLYPREGTEV [FOXI1, Q12951]", "below the threshold"),
]

Sample AEASVACSLC [PTGIR, P43119] — what was its pKd?
below the threshold

pKd lookup needed for QRPYRRGSEI [KCNJ18, B7U540] , thanks.
below the threshold

Item under review: VKRNSKETVV [MARCHF3, Q86UD3] . Reported pKd?
4.6

Endpoint output: pKd of REEPDHSTEV [CCRL2, O00421] . Value?
3.48

Item under review: APIAGFSSFV [SDK2, Q58EX2] . Reported pKd?
4.03

Look at this binder and give its reported pKd. NISYRRESAI [KCNJ4, P48050]
below the threshold

Quick one: pKd of RDPPAEWTRV [PTPN18, Q99952] ?
4.11

Which measured pKd value corresponds to DDASLPVSDV [PLEKHA1, Q9HB21] ?
below the threshold

So what does the record say about pKd for TISFTQTSQF [SLC1A1, P43005] ?
below the threshold

What pKd value was documented for this binder, GTGYDRKDYV [CLDN3, O15551] ?
3.57

So what's the measured pKd for this one? DPAESMESLV [PTPRG, P23470]
below the threshold

Using the record for AQRARSPSDV [GPR12, P47775] , report its pKd.
below the threshold

# input binder: ELSATVTTDC [TRIP6, Q15654] ; wanted: its pKd
below the threshold

If you can, please state the reported pKd value of IDESKKEWLI [CNTNAP2, Q9UHC6] .
3.94

For LESTTVGTSV [KARS1, Q15046] , what is its reported pKd?
below the threshold

Entry under review: SVTSERETNI [SLC16A7, O60669] . Reported pKd?
below the threshold

What does the data say about its pKd? Entry: GIKKITSTAL [RPS6KA3, P51812]
below the threshold
